Tested on: pig epidermis
Test: Water retention of impregnated pig epidermis
Conditions: 30% r.h., 24 hours, 23° C.; soaked 2 h in 10% solution; improvement vs blank value (water only)
Excerpt: The favorable action of the compounds, which are to be used in accordance with the invention, with respect to their capacity for the absorption and retention of water, was established by means of the test methods described hereinafter. A process for determining the equilibrium dampness which is indicative of the water retention capacity, and the determination of the water retention, rehydration and elasticity of impregnated pig epidermis are described in these tests. […]
Kindly state Water Retention, % H2O after drying out at 30% r.h. for each of the entries shown.

For this molecule ( O=C1OCCN1CCO [Product I, N-(2-hydroxyethyl)-oxazolidine-2-one] ), measured Water Retention, % H2O after drying out at 30% r.h. is 10 Δ% H2O

For this molecule ( O=C1NC(CO)(CO)CO1 [Product H, 4,4-bis-hydroxymethyl-oxazolidine-2-one] ), measured Water Retention, % H2O after drying out at 30% r.h. is 12 Δ% H2O

For this molecule ( CC1(C)COC(=O)N1 [Product F, 4,4-Dimethyl-oxazolidine-2-one] ), measured Water Retention, % H2O after drying out at 30% r.h. is 5 Δ% H2O

For this molecule ( O=C(NCCO)OCCO [Product A] ), measured Water Retention, % H2O after drying out at 30% r.h. is 25 Δ% H2O

Next up:
For this molecule ( CC(O)CNC(=O)OCCO (centres unmarked) [Product B] ), measured Water Retention, % H2O after drying out at 30% r.h. is 23 Δ% H2O
